Documented IC90, Endogenous human IL-1 B (THP1 supernatants), HEK blue across a set of binders
target system: Endogenous human IL-1B (THP1 supernatants) (human, UniProt P01584 117-269)
assay details: cell-based or functional assay
# output: bare number, implied unit nM

Antibody A3 (antibody, V domains shown) VH: QVQLVQSGAEVKKPGASVKVSCKATGYTFTDYWIAWVRQAPGQGLEWMGSIFPGGDYTNYNEKFKGRVTMTRDTSTSTSYMELSSLRSEDTAIYYCARPYYSNYGHFDYWGQGTLVTVSS VL: EIILTQFPATLSLSPGERATISCRASESVDNSGIGFMNWYQQKPGQAPRLLIYAASNQGSGIPARFSGSGSGTDFTLTISRLEPEDFAVYYCQQNKELPWTFGQGTKLEIK
0.246
Antibody A4 (antibody, V domains shown) VH: QVQLVQSGAEVKKPGASVKVSCKATGYTFTDYWIAWVRQAPGQGLEWMGSIFPGGDYTNYNEKFKGRVTMTRDTSTSTSYMELSSLRSEDTAVYYCARPYYSNYGHFDYWGQGTLVTVSS VL: EIVLTQSPATLSLSPGERATLSCRASESVDNSGIGFMNWYQQKPGQAPRLLIYAASNQGSGIPARFSGSGSGTDFTLTISRLEPEDFAVYYCQQNKELPWTFGQGTKLEIK
0.262
Antibody A1 (antibody, V domains shown) VH: QVQLVQSGAEVKKPGASVKVSCKATGYTFTNYWIAWVKQAPGQGLEWMGSIFPGGDYTNYNEKFKGKVTMTRDTSTSTSYMELSSLRSEDTAVYYCARPYYSNYGHFDYWGQGTLVTVSS VL: EIVLTQSPATLSLSPGERATLSCRASESVDNSGIGFMNWYQQKPGQAPKLLIYAASNQGSGIPARFSGSGSGTDFTLTISRLEPEDFAMYYCQQNKELPWTFGGGTKLEIK
0.15
Antibody B3 (antibody, V domains shown) VH: EVQLVQSGAEVKKPGASVKVSCKASGFSFTGYYMHWVRQAPGQGLEWVGLIIPHNDYTVNNQKFKGRVTMTRDTSTSTAYMELSSLRSEDTAVYYCARSDYYGAMDYWGQGTLVTVSS VL: EIVMTQSPATLSVSPGERATLSCRASQNIGTSIHWYQQKPGQAPRLLIKYASDSVYGIPARFSGSGSGTEFTLTISSLQSEDIAVYYCQQGASWPPFTFGQGTKLEIK
0.075
Antibody B1 (antibody, V domains shown) VH: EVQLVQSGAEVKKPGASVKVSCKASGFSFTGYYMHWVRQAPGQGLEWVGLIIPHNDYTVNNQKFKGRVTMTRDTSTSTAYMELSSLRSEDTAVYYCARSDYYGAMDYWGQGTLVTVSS VL: EIVMTQSPATLSVSPGERATLSCRASQNIGTSIHWYQQKPGQAPRLLIKYASNSIYGIPARFSGSGSGTEFTLTISSLQSEDIAVYYCQQGASWPPFTFGQGTKLEIK
0.068

# next binder below
Any idea what its IC90, Endogenous human IL-1 B (THP1 supernatants), HEK blue is? The binder is Antibody B4 (antibody, V domains shown) VH: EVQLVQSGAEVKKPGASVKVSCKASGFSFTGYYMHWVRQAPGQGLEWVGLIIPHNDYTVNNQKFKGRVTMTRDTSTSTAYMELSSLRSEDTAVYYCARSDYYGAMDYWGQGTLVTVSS VL: EIVMTQSPATLSVSPGERATLSCRASQNIGTSIHWYQQKPGQAPRLLIKYASDSKDGIPARFSGSGSGTEFTLTISSLQSEDIAVYYCQQGASWPPFTFGQGTKLEIK
0.091
